System: MDA-MB-436 cells
Assay: CTG Protocol (MDA-MB-436 GI50), antiproliferative activity
Assay type: cell-based, human
Settings: Homo sapiens, 168 h; MDA-MB-436 cells (BRCA1 mutation), 7-day incubation, CellTiter-Glo

| Item smiles | Assay target | GI50 |
| --- | --- | --- |
| COc1ncnc(C2CC2)c1-c1ncc2cc(-c3ncnn3C)c(=O)n(Cc3ccc(-c4nc(C(F)(F)F)cn4C4CC4)cc3)c2n1 | MDA-MB-436 cells | 10 to 100 nM |
| COc1ncnc(C2CC2)c1-c1ncc2cc(-c3ncn(C)n3)c(=O)n(Cc3ccc(-c4nc(C(F)(F)F)cn4C4CC4)cc3)c2n1 | MDA-MB-436 cells | 10 to 100 nM |
| COc1cc(Cn2c(=O)ccc3c(C)nc(-c4c(OC)ncnc4C4CC4)nc32)cc(F)c1-c1nc(C(F)(F)F)cn1C1CC1 | MDA-MB-436 cells | < 10 nM |
